# assay_overview: Caco-2 Permeability Assay
# Assay type: in vitro ADME
# assay_conditions: human, apparent permeability A to B, compound at 10 μM, apical buffer pH 6.0, basolateral buffer pH 7.4, read-out: Papp (cm/sec, *10^−6)
Tick class 1 if Papp A→B at 10 μM is 10 ×10⁻⁶ cm/s or greater. Tick class 0 if Papp A→B at 10 μM is less than 10 ×10⁻⁶ cm/s.

• CC[C@H]1C[C@@H](n2c(=O)nc(-c3cnn(C)c3)c3oc4ncc(-c5cnn(C)c5)cc4c32)CCO1 = class 0
• CC[C@H]1C[C@@H](n2c(=O)nc(-c3cnn(C)c3)c3oc4ccc(-c5cn(C)cn5)nc4c32)CCO1 = class 1
• CC[C@H]1C[C@@H](n2c(=O)nc(-c3cnn(C)c3)c3oc4ccc(-c5cn(C)cn5)cc4c32)CCO1 = class 0
• CC[C@H]1C[C@@H](n2c(=O)nc(-c3cnn(C)c3)c3oc4c(OC)cc(-c5cnn(C)c5)cc4c32)CCO1 = class 1
• CC[C@H]1C[C@@H](n2c(=O)nc(-c3cnn(C)c3)c3oc4cc(Cl)c(-c5cnn(C)c5)cc4c32)CCO1 = class 1
• CC[C@H]1C[C@@H](n2c(=O)nc(-c3ccc(OC)cn3)c3oc4ccc(-c5cn(C)cn5)nc4c32)CCO1 = class 1
• CNc1ccc(-c2nc(=O)n(CCC3CCCO3)c3c2oc2c(F)cc(-c4cnn(C)c4)cc23)cn1 (stereo not shown) = class 0

---

# System: HIV-1
# assay_overview: C8166 HIV-1 Luciferase Assay (EC50)
# Assay type: cell-based
# assay_conditions: Human immunodeficiency virus 1, C8166, 72 h
pEC50: −log10 of the molar value.
Tick YES if pEC50 is 8 or greater. Tick NO if pEC50 is less than 8.

• CC[C@H]1C[C@@H](n2c(=O)nc(-c3cnn(C)c3)c3oc4c(F)cc(-c5cn(C)cn5)cc4c32)CCO1 [Compound 1097] = YES
• CNc1ccc(-c2nc(=O)n(CCC3CCCO3)c3c2oc2ncc(-c4cnn(CC5CC5)c4)cc23)cn1 (stereo not drawn) [Compound 1068] = NO
• CC[C@H]1C[C@@H](n2c(=O)nc(-c3cccnc3)c3oc4cc(C#N)c(-c5cnn(C)c5)nc4c32)CCO1 [Compound 1019] = NO
• CC[C@H]1C[C@@H](n2c(=O)nc(-c3cnn(C)c3)c3oc4c(C#N)c(C)c(-c5cnn(C)c5)cc4c32)CCO1 [Compound 1060] = NO

---

# assay_overview: Caco-2 Permeability Assay
# Assay type: in vitro ADME
# assay_conditions: human, apparent permeability A to B, compound at 10 μM, apical buffer pH 6.0, basolateral buffer pH 7.4, read-out: Papp (cm/sec, *10^−6)
Known Papp A→B at 10 μM of a selection of molecules
readout_label: Papp A→B at 10 μM (×10⁻⁶ cm/s)

• CCC[C@H]1C[C@@H](n2c(=O)nc(-c3cnn(C)c3)c3oc4cc(C#N)c(-c5cnn(C)c5)nc4c32)CCO1 [Compound 1018] = 19.8
• CC[C@H]1C[C@@H](n2c(=O)nc(-c3cnn(C)c3)c3oc4cc(C#N)c(-c5ccn(C)n5)cc4c32)CCO1 [Compound 1054] = 20.3
• CC[C@H]1C[C@@H](n2c(=O)nc(-c3cnn(C)c3)c3oc4ccc(-c5cnn(C)c5)nc4c32)CCO1 [Compound 1001] = 20.4
